The reported numbers originate from patent US10874743B2.

# TARGET DESC: IRAK4 (Homo sapiens)
# Sequence (Q9NWZ3 1-460): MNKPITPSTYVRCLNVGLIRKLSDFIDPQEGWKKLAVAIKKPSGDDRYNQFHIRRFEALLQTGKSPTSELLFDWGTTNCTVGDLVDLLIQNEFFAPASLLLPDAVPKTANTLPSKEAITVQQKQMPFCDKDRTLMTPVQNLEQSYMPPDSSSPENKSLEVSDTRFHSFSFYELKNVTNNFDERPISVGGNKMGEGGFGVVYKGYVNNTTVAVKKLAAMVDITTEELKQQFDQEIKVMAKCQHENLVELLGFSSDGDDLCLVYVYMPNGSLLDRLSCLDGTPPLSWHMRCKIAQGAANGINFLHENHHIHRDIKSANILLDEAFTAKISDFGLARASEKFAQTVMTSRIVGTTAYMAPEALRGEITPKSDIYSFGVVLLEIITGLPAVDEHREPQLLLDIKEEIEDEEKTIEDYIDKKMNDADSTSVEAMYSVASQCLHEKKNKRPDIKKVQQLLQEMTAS
# TEST DESCRIPTION: OCI-LY-10 degradation assay (western blot, % IRAK4 degraded after 4 hours)
# Assay type: cell-based
# Set-up: endogenous in cells; host or cells: OCI-LY10
# STUDY CONDITIONS: OCI-LY10 cells, IRAK4 degraded after 4 hours, western blot

{"MOLECULE": "Cc1ncsc1-c1ccc(CNC(=O)[C@@H]2C[C@@H](O)CN2C(=O)[C@@H](NC(=O)COCCCCCOCCCCCNC(=O)CN2CCC(Nc3cccc(-c4cnc5ccc(C#N)cn45)n3)C2)C(C)(C)C)cc1 (some centres unmarked)", "OCI-LY10 % IRAK4 Degradation": "C (<20% degradation)"}
{"MOLECULE": "Cc1ccc(NS(=O)(=O)c2ccc(CNC(=O)COCCOCCOCCOCCNC(=O)c3ccc(-n4cc(NC(=O)c5coc(-c6ccnc(NCC(F)(F)F)c6)n5)c(C(N)=O)n4)cc3)cc2)c2[nH]cc(C#N)c12", "OCI-LY10 % IRAK4 Degradation": "C (<20% degradation)"}
{"MOLECULE": "CC(C)(OCCOCCOCCNc1cccc2c1C(=O)N(C1CCC(=O)NC1=O)C2=O)C(F)CNC(=O)c1cnc(Nc2ccc3ncsc3c2)cc1NC1CC1 (centres unmarked)", "OCI-LY10 % IRAK4 Degradation": "C (<20% degradation)"}
{"MOLECULE": "NC(=O)c1nn(-c2ccc(C(=O)NCCOCCOCCOCCOCC#Cc3ccc4c(c3)C(=O)N(C3CCC(=O)NC3=O)C4=O)cc2)cc1NC(=O)c1coc(-c2ccnc(NCC(F)(F)F)c2)n1 (centres unmarked)", "OCI-LY10 % IRAK4 Degradation": "A (>50% degradation)"}
{"MOLECULE": "NC(=O)c1nn(-c2ccc(C(=O)NCC3CN(CCOCCNc4cccc5c4C(=O)N(C4CCC(=O)NC4=O)C5=O)CCO3)cc2)cc1NC(=O)c1coc(-c2ccnc(NCC(F)(F)F)c2)n1 (centres unmarked)", "OCI-LY10 % IRAK4 Degradation": "A (>50% degradation)"}
{"MOLECULE": "CC(OCCNc1cccc2c1C(=O)N(C1CCC(=O)NC1=O)C2=O)C(F)CNC(=O)c1cnc(-n2ncc3cc(C#N)cnc32)cc1NC1CC1 (centres unmarked)", "OCI-LY10 % IRAK4 Degradation": "C (<20% degradation)"}
{"MOLECULE": "NC(=O)[C@@H](O)C[C@H]1CCc2sc3ncnc(O[C@H]4CC[C@H](N5CCN(C(=O)COCCNc6cccc7c6C(=O)N(C6CCC(=O)NC6=O)C7=O)CC5)CC4)c3c21 (some centres unmarked)", "OCI-LY10 % IRAK4 Degradation": "C (<20% degradation)"}
